- Tested on: mice bearing PSMA-expressing LNCAP cancer xenografts
- METHOD DESCRIPTION: Biodistribution of 68Ga-labeled compounds
- Assay type: in vivo
- MEASUREMENT PARAMETERS: 3 h post-injection
- Procedure: Imaging and biodistribution experiments were performed using NODSCID 1L2RyKO male mice. Mice were anesthetized by inhalation with 2% isoflurane in oxygen, and implanted subcutaneously with 1×10^7 LNCaP cells behind left shoulder. […] For biodistribution studies, the mice were injected with the radiotracer as described above. […] The collected organs/tissues were weighed and counted using an automatic gamma counter. […]
MEASURED ENDPOINT: Thyroid uptake (% ID/g)
Report the value in % ID/g with no unit label.

Answered examples (5):
COMPOUND: O=C([O-])CN1CCN(CC(=O)[O-])CCN(CC(=O)NCCCC[C@H](NC(=O)CNC(=O)CCCc2ccc(I)cc2)C(=O)NC[C@H]2CC[C@H](C(=O)N[C@@H](Cc3ccc4ccccc4c3)C(=O)NCCCC[C@H](NC(=O)N[C@@H](CCC(=O)O)C(=O)O)C(=O)O)CC2)CCN(CC(=O)[O-])CC1.[68Ga+3] [^68Ga-HTK03024]
MEASURED TARGET: mice bearing PSMA-expressing LNCAP cancer xenografts
Thyroid uptake (% ID/g): 4.19
//
COMPOUND: Nc1ccc(CCCC(=O)NCC(=O)N[C@@H](CCCCNC(=O)CN2CCN(CC(=O)[O-])CCN(CC(=O)[O-])CCN(CC(=O)[O-])CC2)C(=O)NC[C@H]2CC[C@H](C(=O)N[C@@H](Cc3ccc4ccccc4c3)C(=O)NCCCC[C@H](NC(=O)N[C@@H](CCC(=O)O)C(=O)O)C(=O)O)CC2)cc1.[68Ga+3] [^68Ga-HTK03087]
MEASURED TARGET: mice bearing PSMA-expressing LNCAP cancer xenografts
Thyroid uptake (% ID/g): 0.24
//
COMPOUND: O=C([O-])CN1CCN(CC(=O)[O-])CCN(CC(=O)NCCCC[C@H](NC(=O)CNC(=O)CCCc2ccc(F)cc2)C(=O)NC[C@H]2CC[C@H](C(=O)N[C@@H](Cc3ccc4ccccc4c3)C(=O)NCCCC[C@H](NC(=O)N[C@@H](CCC(=O)O)C(=O)O)C(=O)O)CC2)CCN(CC(=O)[O-])CC1.[68Ga+3] [^68Ga-HTK03085]
MEASURED TARGET: mice bearing PSMA-expressing LNCAP cancer xenografts
Thyroid uptake (% ID/g): 0.64
//
COMPOUND: O=C([O-])CN1CCN(CC(=O)[O-])CCN(CC(=O)NCC2CCC(C(=O)NC(Cc3c4ccccc4cc4ccccc34)C(=O)NCCCCC(NC(=O)NC(CCC(=O)O)C(=O)O)C(=O)O)CC2)CCN(CC(=O)[O-])CC1.[68Ga+3] (centres unmarked) [^68Ga-HTK03041]
MEASURED TARGET: mice bearing PSMA-expressing LNCAP cancer xenografts
Thyroid uptake (% ID/g): 1.19
//
COMPOUND: O=C([O-])CN1CCN(CC(=O)[O-])CCN(CC(=O)NCCCC[C@H](NC(=O)CNC(=O)CCCc2ccc([N+](=O)[O-])cc2)C(=O)NC[C@H]2CC[C@H](C(=O)N[C@@H](Cc3ccc4ccccc4c3)C(=O)NCCCC[C@H](NC(=O)N[C@@H](CCC(=O)O)C(=O)O)C(=O)O)CC2)CCN(CC(=O)[O-])CC1.[68Ga+3] [^68Ga-HTK03089]
MEASURED TARGET: mice bearing PSMA-expressing LNCAP cancer xenografts
Thyroid uptake (% ID/g): 0.98

Lookup: For the compound O=C([O-])CN1CCN(CC(=O)[O-])CCN(CC(=O)NCCCC[C@H](NC(=O)CNC(=O)CCCc2ccc(Br)cc2)C(=O)NC[C@H]2CC[C@H](C(=O)N[C@@H](Cc3ccc4ccccc4c3)C(=O)NCCCC[C@H](NC(=O)N[C@@H](CCC(=O)O)C(=O)O)C(=O)O)CC2)CCN(CC(=O)[O-])CC1.[68Ga+3] [^68Ga-HTK03058] , what Thyroid uptake is on record?
Found: 3.72

Lookup: For the compound O=C([O-])CN1CCN(CC(=O)[O-])CCN(CC(=O)NCCCC[C@H](NC(=O)CNC(=O)CCCc2ccc(Cl)cc2)C(=O)NC[C@H]2CC[C@H](C(=O)N[C@@H](Cc3ccc4ccccc4c3)C(=O)NCCCC[C@H](NC(=O)N[C@@H](CCC(=O)O)C(=O)O)C(=O)O)CC2)CCN(CC(=O)[O-])CC1.[68Ga+3] [^68Ga-HTK03055] , what Thyroid uptake is on record?
Found: 3.40

Lookup: For the compound Cc1ccc(CCCC(=O)NCC(=O)N[C@@H](CCCCNC(=O)CN2CCN(CC(=O)[O-])CCN(CC(=O)[O-])CCN(CC(=O)[O-])CC2)C(=O)NC[C@H]2CC[C@H](C(=O)N[C@@H](Cc3ccc4ccccc4c3)C(=O)NCCCC[C@H](NC(=O)N[C@@H](CCC(=O)O)C(=O)O)C(=O)O)CC2)cc1.[68Ga+3] [^68Ga-HTK03090] , what Thyroid uptake is on record?
Found: 2.76
